Species on record: Rattus norvegicus
Assay: Open TG-GATES - Regimen: Single
Format: toxicity, organism-based, Sprague-Dawley
Set-up: regimen Single, gender Male, age 6 weeks
Conditions: in vivo, po, 1000 mg/kg, 3 h, tissue Plasma, route gavage, dose level High
measure.name: LDH
Just so you know, I need the unit written after the number.

Below: 3 compounds and their reported LDH.
compound="CCOC(=O)CCC(=O)O[C@H]1[C@H](O[C@@H]2[C@@H](C)[C@H](O[C@H]3C[C@@](C)(OC)[C@@H](O)[C@H](C)O3)[C@@H](C)C(=O)O[C@H](CC)[C@@](C)(O)[C@H](O)[C@@H](C)C(=O)[C@H](C)C[C@@]2(C)O)O[C@H](C)C[C@@H]1N(C)C [ERYTHROMYCIN ETHYLSUCCINATE]" experimental_value="158.4 IU/L"
compound="NC(N)=Nc1nc(CSCCC(N)=NS(N)(=O)=O)cs1 [FAMOTIDINE]" experimental_value="188.8 IU/L"
compound="COC1=CC(=O)C[C@@H](C)[C@]12Oc1c(Cl)c(OC)cc(OC)c1C2=O [GRISEOFULVIN]" experimental_value="128.4 IU/L"

Answer with the recorded LDH of COc1ccc2[nH]c([S+]([O-])Cc3ncc(C)c(OC)c3C)nc2c1 (centres undefined) [OMEPRAZOLE] only.
174.6 IU/L

* * *

Species on record: Rattus norvegicus
Test: Open TG-GATES - Regimen: Daily Repeat
Type: toxicity, organism-based, Sprague-Dawley
Parameters: regimen Daily Repeat, gender Male, age 6 weeks
Conditions: in vivo, po, 100 mg/kg, […], tissue Kidney, route gavage, dose level Low, time 28 day
Reported KIDNEY_TOTAL values are given for each entry in this list.
Please reply with the bare figure in g and do not write the unit itself.

compound="NC(N)=Nc1nc(CSCCC(N)=NS(N)(=O)=O)cs1 [FAMOTIDINE]" unit_text=g experimental_value=2.7
compound="CCOC(=O)CCC(=O)O[C@H]1[C@H](O[C@@H]2[C@@H](C)[C@H](O[C@H]3C[C@@](C)(OC)[C@@H](O)[C@H](C)O3)[C@@H](C)C(=O)O[C@H](CC)[C@@](C)(O)[C@H](O)[C@@H](C)C(=O)[C@H](C)C[C@@]2(C)O)O[C@H](C)C[C@@H]1N(C)C [ERYTHROMYCIN ETHYLSUCCINATE]" unit_text=g experimental_value=2.9
compound="CCOc1ccc(NC(=O)CC(C)O)cc1 (stereo not given) [BUCETIN]" unit_text=g experimental_value=2.9
compound="COc1ccc2[nH]c([S+]([O-])Cc3ncc(C)c(OC)c3C)nc2c1 (stereo not given) [OMEPRAZOLE]" unit_text=g experimental_value=2.7

Output KIDNEY_TOTAL of COC1=CC(=O)C[C@@H](C)[C@]12Oc1c(Cl)c(OC)cc(OC)c1C2=O [GRISEOFULVIN]
2.9

* * *

Species: Rattus norvegicus
Test: Open TG-GATES - Regimen: Single
Assay type: toxicity, organism-based, Sprague-Dawley
Parameters: regimen Single, gender Male, age 6 weeks
Details: in vivo, po, 100 mg/kg, 24 h, tissue Plasma, route gavage, dose level Low
// values below are reported CRE
Please give a number only; it is taken to be in mg/dL.

Write down CRE measured for item COc1ccc2[nH]c([S+]([O-])Cc3ncc(C)c(OC)c3C)nc2c1 (centres undefined) [OMEPRAZOLE]
0.4

Give the reported CRE for this compound. COC1=CC(=O)C[C@@H](C)[C@]12Oc1c(Cl)c(OC)cc(OC)c1C2=O [GRISEOFULVIN]
0.4

Could you please provide reported CRE for NC(N)=Nc1nc(CSCCC(N)=NS(N)(=O)=O)cs1 [FAMOTIDINE] ? Thanks!
0.4

State, in one line, measured CRE of CCOC(=O)CCC(=O)O[C@H]1[C@H](O[C@@H]2[C@@H](C)[C@H](O[C@H]3C[C@@](C)(OC)[C@@H](O)[C@H](C)O3)[C@@H](C)C(=O)O[C@H](CC)[C@@](C)(O)[C@H](O)[C@@H](C)C(=O)[C@H](C)C[C@@]2(C)O)O[C@H](C)C[C@@H]1N(C)C [ERYTHROMYCIN ETHYLSUCCINATE]
0.1

* * *

Organism: Rattus norvegicus
Assay: Open TG-GATES - Regimen: Single
Type: toxicity, organism-based, Sprague-Dawley
Parameters: regimen Single, gender Male, age 6 weeks
Settings: in vivo, po, 100 mg/kg, 6 h, tissue Kidney, route gavage, dose level Low
Items are presented alongside their recorded KIDNEY_L.
Expressed in g, but write only the number.

Record excerpt, results attached:
compound=COC1=CC(=O)C[C@@H](C)[C@]12Oc1c(Cl)c(OC)cc(OC)c1C2=O unit_text=g experimental_value=0.9
compound="COc1ccc2[nH]c([S+]([O-])Cc3ncc(C)c(OC)c3C)nc2c1 (centres undefined)" unit_text=g experimental_value=1
compound="CCOC(=O)CCC(=O)O[C@H]1[C@H](O[C@@H]2[C@@H](C)[C@H](O[C@H]3C[C@@](C)(OC)[C@@H](O)[C@H](C)O3)[C@@H](C)C(=O)O[C@H](CC)[C@@](C)(O)[C@H](O)[C@@H](C)C(=O)[C@H](C)C[C@@]2(C)O)O[C@H](C)C[C@@H]1N(C)C [ERYTHROMYCIN ETHYLSUCCINATE]" unit_text=g experimental_value=1

Now consider a different compound.
Query KIDNEY_L for NC(N)=Nc1nc(CSCCC(N)=NS(N)(=O)=O)cs1
1

* * *

Species on record: Rattus norvegicus
Assay: Open TG-GATES - Regimen: Daily Repeat
Type: toxicity, organism-based, Sprague-Dawley
Parameters: regimen Daily Repeat, gender Male, age 6 weeks
Conditions: in vivo, po, 0 mg/kg, 72 h, tissue Blood, route gavage, dose level Control, time 3 day
Mark criterion not met for Neu values under 20%, and criterion met for everything at or above.

compound="NNC(=O)c1ccncc1 [ISONIAZID]" class="criterion not met"
compound="CCCNC(=O)NS(=O)(=O)c1ccc(Cl)cc1 [CHLORPROPAMIDE]" class="criterion not met"
compound="O=C(CCCN1CCC(O)(c2ccc(Cl)cc2)CC1)c1ccc(F)cc1 [HALOPERIDOL]" class="criterion not met"

Identify whether the reported Neu of the following compound is 20% or greater: CCOc1ccc(NC(=O)CC(C)O)cc1 (stereo unspecified) [BUCETIN]
criterion met

Decide: Neu of NC(N)=Nc1nc(CSCCC(N)=NS(N)(=O)=O)cs1 [FAMOTIDINE] >= 20%?
criterion met

Item CCOC(=O)CCC(=O)O[C@H]1[C@H](O[C@@H]2[C@@H](C)[C@H](O[C@H]3C[C@@](C)(OC)[C@@H](O)[C@H](C)O3)[C@@H](C)C(=O)O[C@H](CC)[C@@](C)(O)[C@H](O)[C@@H](C)C(=O)[C@H](C)C[C@@]2(C)O)O[C@H](C)C[C@@H]1N(C)C [ERYTHROMYCIN ETHYLSUCCINATE] with Neu of 20% or above?
criterion not met

* * *

Quick list: TP per entry.
Organism: Rattus norvegicus
Assay: Open TG-GATES - Regimen: Single
Type: toxicity, organism-based, Sprague-Dawley
Parameters: regimen Single, gender Male, age 6 weeks
Conditions: in vivo, po, 100 mg/kg, 24 h, tissue Plasma, route gavage, dose level Low
Reply with just the number (in g/dL).

// solved cases for TP follow
molecule="CCOC(=O)CCC(=O)O[C@H]1[C@H](O[C@@H]2[C@@H](C)[C@H](O[C@H]3C[C@@](C)(OC)[C@@H](O)[C@H](C)O3)[C@@H](C)C(=O)O[C@H](CC)[C@@](C)(O)[C@H](O)[C@@H](C)C(=O)[C@H](C)C[C@@]2(C)O)O[C@H](C)C[C@@H]1N(C)C [ERYTHROMYCIN ETHYLSUCCINATE]" measure_name=TP experimental_value=5.5
molecule="COC1=CC(=O)C[C@@H](C)[C@]12Oc1c(Cl)c(OC)cc(OC)c1C2=O [GRISEOFULVIN]" measure_name=TP experimental_value=5.5
molecule="NC(N)=Nc1nc(CSCCC(N)=NS(N)(=O)=O)cs1 [FAMOTIDINE]" measure_name=TP experimental_value=5.6

Next, consider the following molecule.
Give the value of TP reported for the following: COc1ccc2[nH]c([S+]([O-])Cc3ncc(C)c(OC)c3C)nc2c1 (centres undefined) [OMEPRAZOLE]
5.3

* * *

Organism: Rattus norvegicus
Assay: Open TG-GATES - Regimen: Daily Repeat
Format: toxicity, organism-based, Sprague-Dawley
Design: regimen Daily Repeat, gender Male, age 6 weeks
Conditions: in vivo, po, 0 mg/kg, […], tissue Blood, route gavage, dose level Control, time 14 day
Measured Bas accompanies every entry in the list below.
Reply numerically in %, unit not repeated.

compound=CN(C)CCN(Cc1cccs1)c1ccccn1 measure_name=Bas experimental_value=0
compound="CCOC(=O)CCC(=O)O[C@H]1[C@H](O[C@@H]2[C@@H](C)[C@H](O[C@H]3C[C@@](C)(OC)[C@@H](O)[C@H](C)O3)[C@@H](C)C(=O)O[C@H](CC)[C@@](C)(O)[C@H](O)[C@@H](C)C(=O)[C@H](C)C[C@@]2(C)O)O[C@H](C)C[C@@H]1N(C)C [ERYTHROMYCIN ETHYLSUCCINATE]" measure_name=Bas experimental_value=0

Now, please, on to the next compound.
Give Bas for the following compound: CCCNC(=O)NS(=O)(=O)c1ccc(Cl)cc1 [CHLORPROPAMIDE]
0.2

Value source: ChEMBL document CHEMBL3885861
